tested on: Plasmodium falciparum; assay: Confirmatory screen in NF54 nanoGlo assay, in single point, at 2uM, 72h; assay type: functional, Erythrocyte; details: timepoint 72 hour
Screen size: about 4,800 compounds; about 420 (8.8%) showed an effect of 50% or more. The sample holds strong results, similar compounds and a random draw of the others, so the mix is not that of the screen.
ASSAY_ENDPOINT: % Inhibition (%)
Quick note: give the figure in %, leave out the unit.

Input: Requested field: % Inhibition. Item: `O=C1CCN(C(=O)C2(c3cccc(Cl)c3)CCCC2)CCN1`
Output: 2

Input: How about COCc1nsc(N2CCC(c3ccccc3)CC2C)n1 (stereo unspecified) ?
Output: 1

Input: How about `CC[C@H]1Cn2c(C(=O)NCc3ccc(C)o3)cc3cccc(c32)O1` ?
Output: -11

Input: How about `Cc1cccc(NC(=O)c2c(C)sc3ncnc(N4CCCCC4)c23)c1C` ?
Output: 10

Input: How about `O=C1NCCC[C@@H]1NS(=O)(=O)N1CCc2ccccc2C1` ?
Output: 0

Input: How about `Cc1noc(C(C)(C)NC(=O)Nc2c[nH]nc2-c2nccs2)n1` ?
Output: -7

Input: How about CCOC1CC(NC2CC(c3ccc(F)cc3)C2)C12CCC2 (stereo unspecified) ?
Output: 67

Input: How about O=C(Nc1ccc(C(F)(F)F)cc1)N1CCN(CC(O)C2CCCO2)CC1 (stereo unspecified) ?
Output: 4

Input: How about `Cc1ccc(CC[C@H]2Nc3ccccc3C(c3ccccc3)(c3ccccc3)O2)o1` ?
Output: 74

Input: How about `CCOCCCNC(=O)c1ccc(-c2ccc3c(c2)CCN3C(C)=O)cc1` ?
Output: -2

Input: How about CC(c1ccccc1)N1C(=O)c2ccccc2C1c1c[nH]c2ccccc12 (stereo unspecified) ?
Output: 23
